target_system: UniProt P08473
procedure_summary: In vitro enzyme inhibition assay at human NEP
condition_set: pKi, recombinant human NEP, fluorogenic peptide substrate, 37° C.
pKi: −log10 of the molar value.
metric_name: pKi

1. CN(C)C[C@H](C[C@@H](Cc1ccc(-c2cc(Cl)ccc2F)cc1)NC(=O)c1cnn[nH]1)C(=O)O | 8.50 to 8.90
2. NCCCC(=O)NC[C@H](C[C@@H](Cc1ccc(-c2cc(Cl)ccc2F)cc1)NC(=O)c1cnn[nH]1)C(=O)O | 8.00 to 8.50
3. O=C(N[C@H](Cc1ccc(-c2cc(Cl)ccc2F)cc1)CC(C(=O)O)c1ccsc1)c1cnn[nH]1 (stereo in doubt) | 8.50 to 8.90
4. O=C(N[C@H](Cc1ccc(-c2cc(Cl)ccc2F)cc1)CC(C(=O)O)c1ccccn1)c1cnn[nH]1 (stereo in doubt) | 7.50 to 7.90
5. O=C(N[C@H](Cc1ccc(-c2cc(Cl)ccc2F)cc1)C[C@@H](CN1CC(O)C1)C(=O)O)c1cnn[nH]1 [Example 83b] | ≥ 9.00
6. CCOC[C@H](C[C@@H](Cc1ccc(-c2cc(Cl)ccc2F)cc1)NC(=O)c1coc(C2CC2)n1)C(=O)O | 8.50 to 8.90
7. CCCc1nc(C(=O)N[C@H](Cc2ccc(-c3cc(Cl)ccc3F)cc2)C[C@@H](N)C(=O)O)co1 | 8.00 to 8.50
8. CN(CCO)C[C@H](C[C@@H](Cc1ccc(-c2cc(Cl)ccc2F)cc1)NC(=O)c1c[nH]nn1)C(=O)O | 8.50 to 8.90
9. COC1CN(C[C@H](C[C@@H](Cc2ccc(-c3cc(Cl)ccc3F)cc2)NC(=O)c2c[nH]nn2)C(=O)O)C1 [Example 102b] | ≥ 9.00
10. CCc1cc(C(=O)N[C@H](Cc2ccc(-c3cc(Cl)ccc3F)cc2)C[C@@H](COC)C(=O)O)on1 | ≥ 9.00
11. O=C(N[C@H](Cc1ccc(-c2cc(Cl)ccc2F)cc1)C[C@@H](CN1CC(CO)C1)C(=O)O)c1cnn[nH]1 [Example 93b] | ≥ 9.00
12. O=C(N[C@H](Cc1ccc(-c2cc(Cl)ccc2F)cc1)C[C@@H](CNCCF)C(=O)O)c1cnn[nH]1 | 8.00 to 8.50
13. CCOc1nc(C(=O)N[C@H](Cc2ccc(-c3cc(Cl)ccc3F)cc2)C[C@@H](N)C(=O)O)co1 | 8.00 to 8.50
14. NCCCC[C@H](N)C(=O)N[C@H](C[C@@H](Cc1ccc(-c2cc(Cl)ccc2F)cc1)NC(=O)c1cnn[nH]1)C(=O)O | 8.50 to 8.90

* * *

target_system: human NEP (Homo sapiens (Human))
Sequence (P08473 52-750): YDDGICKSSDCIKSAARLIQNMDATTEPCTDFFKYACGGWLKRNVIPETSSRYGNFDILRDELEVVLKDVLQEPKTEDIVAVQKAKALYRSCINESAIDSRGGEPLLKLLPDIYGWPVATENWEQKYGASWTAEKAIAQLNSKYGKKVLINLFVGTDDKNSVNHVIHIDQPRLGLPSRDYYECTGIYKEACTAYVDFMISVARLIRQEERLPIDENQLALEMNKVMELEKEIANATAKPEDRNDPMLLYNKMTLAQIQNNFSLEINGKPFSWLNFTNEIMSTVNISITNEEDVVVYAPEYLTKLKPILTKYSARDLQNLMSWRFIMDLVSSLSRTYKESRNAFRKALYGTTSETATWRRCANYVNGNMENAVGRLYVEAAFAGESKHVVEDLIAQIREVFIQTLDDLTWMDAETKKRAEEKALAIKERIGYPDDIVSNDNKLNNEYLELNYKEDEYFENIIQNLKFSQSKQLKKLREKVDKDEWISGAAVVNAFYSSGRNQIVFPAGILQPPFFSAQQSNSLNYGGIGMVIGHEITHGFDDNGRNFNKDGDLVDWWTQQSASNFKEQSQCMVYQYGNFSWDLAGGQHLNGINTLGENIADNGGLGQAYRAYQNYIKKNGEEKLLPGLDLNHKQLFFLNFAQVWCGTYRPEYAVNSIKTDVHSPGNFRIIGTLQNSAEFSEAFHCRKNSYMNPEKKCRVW
procedure_summary: In vitro enzyme inhibition assay at human NEP
condition_set: pKi, recombinant human NEP, fluorogenic peptide substrate, 37° C.
pKi: −log10 of the molar value.
// reported pKi for each item listed
metric_name: pKi

1) O=C(N[C@H](Cc1ccc(-c2cc(Cl)ccc2F)cc1)C[C@@H](Cc1nnn[nH]1)C(=O)O)c1cnn[nH]1 | 8.50 to 8.90
2) N[C@@H](C[C@@H](Cc1ccc(-c2cc(Cl)ccc2F)cc1)NC(=O)c1nc2cc(Cl)ccn2n1)C(=O)O | 8.50 to 8.90
3) N[C@H](C[C@@H](Cc1ccc(-c2cc(Cl)ccc2F)cc1)NC(=O)c1ccc(Cl)cn1)C(=O)O | 8.00 to 8.50
4) Cc1cc(C(=O)NC(Cc2ccc(-c3cc(Cl)ccc3F)cc2)C[C@@H](CC#N)C(=O)O)sn1 (single isomer, unassigned) [Example 52-1] | ≥ 9.00
5) N#CC[C@H](C[C@@H](Cc1ccc(-c2cc(Cl)ccc2F)cc1)NC(=O)c1c[nH]nn1)C(=O)O | 8.50 to 8.90
6) CCOC(=O)[C@H](N)C[C@@H](Cc1ccc(-c2cc(Cl)ccc2F)cc1)NC(=O)c1cc(C(C)=O)n[nH]1 | 7.50 to 8.00
7) CC(C)c1coc(C(=O)N[C@H](Cc2ccc(-c3cc(Cl)ccc3F)cc2)C[C@@H](NC(=O)[C@H](N)CO)C(=O)O)n1 | 8.50 to 8.90
